- tgt: T1, human C5 R885C-mmh (human, UniProt P01031 19-1676)
- T1 construct: also called human C5 variant R885C
- experimental protocol: SPR, mAb captured via anti-hFc, 37C
measured parameter: kon (M⁻¹ s⁻¹)
Output spec: scalar in M⁻¹ s⁻¹, unitless text.

H4H12161P (antibody, human IgG4, V domains shown, Human IgG4 Fc with S108P hinge mutation (H4H)) VH: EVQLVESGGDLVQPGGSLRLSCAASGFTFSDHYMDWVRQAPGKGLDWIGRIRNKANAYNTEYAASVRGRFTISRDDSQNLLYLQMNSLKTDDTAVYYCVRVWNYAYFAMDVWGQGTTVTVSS VL: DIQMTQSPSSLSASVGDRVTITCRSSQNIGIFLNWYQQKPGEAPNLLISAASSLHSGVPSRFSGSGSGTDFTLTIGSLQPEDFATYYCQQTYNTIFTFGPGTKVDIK = 110000
H4H11683N (antibody, V domains shown, also called H2M11683N) VH: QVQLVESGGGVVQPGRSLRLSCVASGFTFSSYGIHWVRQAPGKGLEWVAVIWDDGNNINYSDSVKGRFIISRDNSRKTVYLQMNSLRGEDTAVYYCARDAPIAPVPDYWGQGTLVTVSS VL: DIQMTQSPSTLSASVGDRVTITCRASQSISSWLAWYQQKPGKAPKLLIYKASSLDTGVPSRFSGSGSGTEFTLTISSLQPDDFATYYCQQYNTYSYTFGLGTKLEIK = 438000

Briefly, kon measured for H4H12168P (antibody, human IgG4, V domains shown, Human IgG4 Fc with S108P hinge mutation (H4H)) VH: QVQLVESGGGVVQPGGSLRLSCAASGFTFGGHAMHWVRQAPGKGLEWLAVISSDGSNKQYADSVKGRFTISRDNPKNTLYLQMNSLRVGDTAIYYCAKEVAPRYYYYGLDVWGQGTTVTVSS VL: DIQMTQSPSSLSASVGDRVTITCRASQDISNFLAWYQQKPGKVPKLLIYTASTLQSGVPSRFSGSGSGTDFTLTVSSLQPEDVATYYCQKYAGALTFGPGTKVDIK : 63800
